# Tested on: Staphylococcus aureus
# Assay name: Antibacterial activity against methicillin-resistant Staphylococcus aureus NRS384-USA300 clinical isolates after 18 to 20 hrs in aerobic condition by CLSI protocol based broth microdilution assay
# Type: functional
MIC under 4 µg/mL gets rule met, anything at or over 4 µg/mL gets rule not met.

CCCCCC#Cc1ccc(-n2ncc(/C(C)=N/NC(=N)N)c2C)cc1 | rule met
CC(=O)NC[C@H]1CN(c2ccc(N3CCOCC3)c(F)c2)C(=O)O1 | rule met
C/C(=N\NC(=N)N)c1cnn(-c2ccc(C#CC3CC3)cc2)c1C | rule not met
C/C(=N\NC1=NCCN1)c1cnn(-c2ccc(C#CC3CC3)cc2)c1C | rule not met
C/C(=N\NC(=N)N)c1cnn(-c2ccc(C#CC(C)(C)C)cc2)c1C | rule not met
CCN(CC)CC#Cc1ccc(-n2ncc(/C(C)=N/NC3=NCCN3)c2C)cc1 | rule not met
CCN(CC)CC#Cc1ccc(-n2ncc(/C(C)=N/NC(=N)N)c2C)cc1 | rule not met
C/C(=N\NC1=NCCN1)c1cnn(-c2ccc(C#CC3(O)CCCCC3)cc2)c1C | rule not met
C/C(=N\NC1=NCCN1)c1cnn(-c2ccc(C#CC(C)(C)O)cc2)c1C | rule not met
CCCC#Cc1ccc(-n2ncc(/C(C)=N/NC3=NCCN3)c2C)cc1 | rule not met
CCCCC#Cc1ccc(-n2ncc(/C(C)=N/NC(=N)N)c2C)cc1 | rule met
C/C(=N\NC(=N)N)c1cnn(-c2ccc(C#CC(C)(C)O)cc2)c1C | rule not met
CCCCC#Cc1ccc(-n2ncc(/C(C)=N/NC3=NCCN3)c2C)cc1 | rule met
C/C(=N\NC1=NCCN1)c1cnn(-c2ccc(C#CC(C)(C)C)cc2)c1C | rule not met
CCCCCCC#Cc1ccc(-n2ncc(/C(C)=N/NC(=N)N)c2C)cc1 | rule met
C/C(=N\NC(=N)N)c1cnn(-c2ccc(C#CC3CCCC3)cc2)c1C | rule met
C/C(=N\NC(=N)N)c1cnn(-c2ccc(C#Cc3ccccc3)cc2)c1C | rule met
C/C(=N\NC(=N)N)c1cnn(-c2ccc(C#CC3(O)CCCCC3)cc2)c1C | rule met
CCCCCC#Cc1ccc(-n2ncc(/C(C)=N/NC3=NCCN3)c2C)cc1 | rule met
C/C(=N\NC(=N)N)c1cnn(-c2ccc(C#CC3CCCCC3)cc2)c1C | rule met
